system: morningglory (Ipomoea coccinea); experiment: Test B pre-/postemergence plant response; assay type: in vivo; conditions: Postemergence, 125 g ai/ha; visual rating after 13 to 15 days, scale 0 (no effect) to 100 (complete control)
Observed property: Plant response rating, Morningglory
Reply with the value as a number alone.

Field: example entries. Status: answers known.
Cn1c(-c2ccccc2)ncc(C(=O)C2=C(O)CCCC2=O)c1=O ... 75
O=C1CCCC(O)=C1C(=O)c1cnc(-c2cccc(Cl)c2)n(-c2ccc(Cl)cc2)c1=O ... 85
Cc1ccc(-c2ncc(C(=O)C3=C(O)CCCC3=O)c(=O)n2-c2ccccc2)cc1 ... 100

// query Report Plant response rating, Morningglory for Cc1ccc(F)cc1-n1c(-c2ccccc2)ncc(C(=O)C2=C(O)CCCC2=O)c1=O
// result 75

// query // Input: O=C1CCCC(O)=C1C(=O)c1cnc(-c2ccccc2Br)n(-c2ccccc2)c1=O . Output its Plant response rating, Morningglory only.
// result 75

// query Look up and report measured Plant response rating, Morningglory for this entry: O=C1CCCC(O)=C1C(=O)c1cnc(-c2ccccc2)n(CC2CCCO2)c1=O (stereo not drawn)
// result 80

----------
# Corn plant response rating per record follows
tested on: corn (Zea mays); assay: Test A pre-/postemergence plant response; type: in vivo; conditions: Postemergence, 125 g ai/ha; visual injury, 0 to 100 scale (0 no effect, 100 complete control), approx. ten days
Reply with the value as a number alone.

Look over these answered cases.
O=C1CCCC(O)=C1C(=O)c1cnc(-c2ccccc2)n(-c2ccc(F)cc2F)c1=O [Compound 57] ... 0
O=C1CCCC(O)=C1C(=O)c1cnc(-c2ccccc2)n(-c2ccccc2F)c1=O [Compound 26] ... 0
Cc1ccc(F)cc1-n1c(-c2ccccc2)ncc(C(=O)C2=C(O)CCCC2=O)c1=O [Compound 44] ... 0

// query Identify measured Corn plant response rating associated with O=C1CCCC(O)=C1C(=O)c1cnc(-c2ccccc2)n(CC2CCCO2)c1=O (centres unmarked) [Compound 59]
// result 10

// query Could you please provide reported Corn plant response rating for Cc1cc(C)cc(-n2c(-c3ccccc3)ncc(C(=O)C3=C(O)CCCC3=O)c2=O)c1 [Compound 33] ? Thanks!
// result 0

----------
system: woolly cupgrass (Eriochloa villosa); assay: Test B pre-/postemergence plant response; format: in vivo; conditions: 250 g ai/ha, Preemergence, 0 to 100 scale
Reported Plant response rating, Cupgrass, Woolly by item:

See these solved cases before continuing.
Cc1cc(C)cc(-n2c(-c3ccccc3)ncc(C(=O)C3=C(O)CCCC3=O)c2=O)c1 ... 85
O=C1CCCC(O)=C1C(=O)c1cnc(-c2ccccc2)n(CC2CCCO2)c1=O (centres unmarked) ... 85
CCCCc1ncc(C(=O)C2=C(O)CCCC2=O)c(=O)n1-c1ccc(C)cc1 ... 10
Cc1cc(-n2c(-c3ccccc3)ncc(C(=O)C3=C(O)CCCC3=O)c2=O)ccc1F ... 95

Now look at this one.
// query Quickly give me recorded Plant response rating, Cupgrass, Woolly for O=C1CCCC(O)=C1C(=O)c1cnc(-c2ccsc2)n(-c2ccccc2)c1=O
// result 70

----------
tested on: pigweed (Amaranthus retroflexus); experiment: Test A pre-/postemergence plant response; type: in vivo; details: Preemergence, 500 g ai/ha; 0 to 100 scale, 0 = no effect, 100 = complete control
Plant response rating, Pigweed overview
The answer should be written as a number, with no unit following it.

CCCn1c(-c2cccc(Cl)c2)ncc(C(=O)C2=C(O)CCCC2=O)c1=O ... 100
COCCCn1c(-c2cccc(F)c2)ncc(C(=O)C2=C(O)C3CCC(C3)C2=O)c1=O (stereo not drawn) ... 100
O=C1CCCC(O)=C1C(=O)c1cnc(-c2cccc(F)c2)n(CCC(F)(F)F)c1=O ... 100
COCCn1c(-c2cccc(F)c2)ncc(C(=O)C2=C(O)C3CCC(C3)C2=O)c1=O (stereo not drawn) ... 90
COCCn1c(-c2ccsc2)ncc(C(=O)C2=C(O)C3CCC(C3)C2=O)c1=O (stereo not drawn) ... 100

// query Return Plant response rating, Pigweed (reported value) for this molecule: O=C1CCCC(O)=C1C(=O)c1cnc(-c2cc(F)cc(F)c2)n(C2CCCCC2)c1=O
// result 100

// query Tell me measured Plant response rating, Pigweed for CCc1ccc(-n2c(-c3cccc(Br)c3)ncc(C(=O)C3=C(O)CCCC3=O)c2=O)cc1 please.
// result 50

// query Query Plant response rating, Pigweed for CCc1ccccc1-n1c(-c2ccccc2)ncc(C(=O)C2=C(O)CCCC2=O)c1=O
// result 90

// query Provide only the value of recorded Plant response rating, Pigweed for Cc1cccc(-c2ncc(C(=O)C3=C(O)CCCC3=O)c(=O)n2-c2ccccc2C)c1
// result 100

// query Kindly indicate its recorded Plant response rating, Pigweed. Item: Cc1cc(-n2c(-c3cccc(F)c3)ncc(C(=O)C3=C(O)CCCC3=O)c2=O)ccc1F
// result 100

// query // Input: Cc1ccc(-n2c(-c3cccc(F)c3)ncc(C(=O)C3=C(O)CCCC3=O)c2=O)cc1 . Output its Plant response rating, Pigweed only.
// result 100

// query // fetch Plant response rating, Pigweed given entry O=C(C1=C(O)C2CCC(C2)C1=O)c1cnc(-c2cc(F)c(F)c(F)c2)n(C2CCCCC2)c1=O (stereo not drawn)
// result 60

// query Output measured Plant response rating, Pigweed for this item: C=CCCn1c(-c2ccccc2)ncc(C(=O)C2=C(O)CCCC2=O)c1=O
// result 90

// query Supply Plant response rating, Pigweed value. Item: CCc1ccc(-n2c(-c3cc(F)cc(F)c3)ncc(C(=O)C3=C(O)CCCC3=O)c2=O)cc1
// result 100

// query Consider the molecule Cc1ccccc1-n1c(-c2cc(F)cc(F)c2)ncc(C(=O)C2=C(O)CCCC2=O)c1=O and give its recorded Plant response rating, Pigweed.
// result 100

----------
system: ducksalad (Heteranthera limosa); test: Test B flooded paddy test; assay type: in vivo; conditions: Flood (flooded paddy test), 62 g ai/ha; scale of 0 to 100 where 0 is no effect and 100 is complete control; 13 to 15 days
Observed property: Plant response rating, Ducksalad

Before answering, review these 5 worked examples.
CCCCCn1c(-c2ccccc2)ncc(C(=O)C2=C(O)CCCC2=O)c1=O ... 90
CCCCn1c(-c2cccc(F)c2)ncc(C(=O)C2=C(O)C3CCC(C3)C2=O)c1=O (centres unmarked) ... 65
CC(C)n1c(-c2ccccc2)ncc(C(=O)C2=C(O)CCCC2=O)c1=O ... 0
CCCn1c(-c2cccc(C(F)(F)F)c2)ncc(C(=O)C2=C(O)CCCC2=O)c1=O ... 60
O=C1CCCC(O)=C1C(=O)c1cnc(-c2ccccc2)n(-c2ccc(F)cc2F)c1=O ... 0

Consider the additional compound presented here.
// query State its Plant response rating, Ducksalad for this compound: CCCc1ncc(C(=O)C2=C(O)CCCC2=O)c(=O)n1Cc1ccccc1
// result 0

----------
Below: a set of entries, each annotated with reported Plant response rating, Morningglory.
tested on: morningglory (Ipomoea coccinea); experiment: Test B pre-/postemergence plant response; assay type: in vivo; conditions: Postemergence, 125 g ai/ha; scale 0 to 100 (0 no effect, 100 complete control)
A bare number is all that is needed in reply.

Answered cases to consult:
COCCn1c(-c2cccc(Cl)c2)ncc(C(=O)C2=C(O)CCCC2=O)c1=O [Compound 147] ... 65
CCCn1c(-c2cc(F)cc(F)c2)ncc(C(=O)C2=C(O)CCCC2=O)c1=O [Compound 152] ... 75
CCCn1c(-c2cccc(Br)c2)ncc(C(=O)C2=C(O)CCCC2=O)c1=O [Compound 141] ... 60
COCCn1c(-c2cccc(F)c2)ncc(C(=O)C2=C(O)C3CCC(C3)C2=O)c1=O (stereo not shown) [Compound 235] ... 100
COCCn1c(-c2ccsc2)ncc(C(=O)C2=C(O)C3CCC(C3)C2=O)c1=O (stereo not shown) [Compound 228] ... 100

// query Indicate the recorded Plant response rating, Morningglory value for this compound: COCCn1c(-c2cccc(C)c2)ncc(C(=O)C2=C(O)C3CCC(C3)C2=O)c1=O (stereo not shown) [Compound 233]
// result 98

// query Tell us which Plant response rating, Morningglory value is on record for COCCn1c(-c2cccc(F)c2)ncc(C(=O)C2=C(O)CCCC2=O)c1=O [Compound 123]
// result 100

// query Give recorded Plant response rating, Morningglory. CC1(C)CC(=O)C(C(=O)c2cnc(-c3ccccc3)n(-c3ccccc3)c2=O)=C(O)C1 [Compound 225]
// result 95

// query Note Plant response rating, Morningglory for the compound shown: Cc1cc(-n2c(-c3cccc(F)c3)ncc(C(=O)C3=C(O)CCCC3=O)c2=O)ccc1F [Compound 191]
// result 90

----------
The entries below are paired with their reported Plant response rating, Crabgrass, Large.
tested on: large crabgrass (Digitaria sanguinalis); assay: Test A pre-/postemergence plant response; format: in vivo; conditions: Preemergence, 125 g ai/ha; 0 to 100 scale, 0 = no effect, 100 = complete control
Keep the answer to the number alone.

Worked examples, 5 molecules total:
O=C1CCCC(O)=C1C(=O)c1cnc(-c2ccccc2)n(CC2CCCO2)c1=O (centres unmarked) ... 90
CCCCn1c(-c2cccc(F)c2)ncc(C(=O)C2=C(O)C3CCC(C3)C2=O)c1=O (centres unmarked) ... 40
Cn1c(-c2ccccc2)ncc(C(=O)C2=C(O)CCCC2=O)c1=O ... 0
O=C1CCCC(O)=C1C(=O)c1cnc(-c2ccccc2)n(-c2cccc(F)c2)c1=O ... 40
Cc1cc(-n2c(-c3cccc(Cl)c3)ncc(C(=O)C3=C(O)CCCC3=O)c2=O)ccc1F ... 50

// query Dear colleague, please send me the reported Plant response rating, Crabgrass, Large for COCCCn1c(-c2cccc(C)c2)ncc(C(=O)C2=C(O)CCCC2=O)c1=O when you can.
// result 60

// query Fill in reported Plant response rating, Crabgrass, Large for this entry: CCCCn1c(-c2cccc(Cl)c2)ncc(C(=O)C2=C(O)CCCC2=O)c1=O
// result 60

// query // fetch Plant response rating, Crabgrass, Large given entry CCCc1ncc(C(=O)C2=C(O)CCCC2=O)c(=O)n1Cc1ccccc1
// result 40

Taken from patent US8952024B2.
